Assay Summary: Biodistribution of 177Lu-labeled αMSH analogues in mice bearing B16F10 mouse melanoma
Assay type: in vivo, C57BL/6J mice
Stated Conditions: mouse, kidneys, iv, total radioactivity; 4 h p.i., C57BL/6J mice, B16F10 melanoma; read-out: Biodistribution, Kidneys
Experimental Endpoint: tissue uptake at 4 h (%ID/g)
API: value field is a number in %ID/g; no unit string.

// below: answered compounds
Compound: CCCC[C@H](NC(=O)CN1CCC(NC(=O)[C@H](CCCCNC(=O)CN2CCN(CC(=O)O)CCN(CC(=O)O)CCN(CC(=O)O)CC2)NC(=O)[C@H](CCC(=O)O)NC(=O)CCCc2ccc(I)cc2)CC1)C(=O)N[C@H]1CC(=O)NCCCC[C@@H](C(N)=O)NC(=O)[C@H](Cc2c[nH]c3ccccc23)NC(=O)[C@H](CCCNC(=N)N)NC(=O)[C@@H](Cc2ccccc2)NC(=O)[C@H](Cc2c[nH]cn2)NC1=O [^177Lu-labeled CCZ01082, metal not drawn]
Unit Annotation: %ID/g
tissue uptake at 4 h: 11.6
//
Compound: CCCC[C@H](NC(=O)CN1CCC(NC(=O)[C@H](CCCCNC(=O)CN2CCN(CC(=O)O)CCN(CC(=O)O)CCN(CC(=O)O)CC2)NC(=O)[C@H](CCC(=O)O)NC(=O)CCCc2ccc(I)cc2)CC1)C(=O)N[C@H]1CC(=O)NCCCC[C@@H](C(N)=O)N(C)C(=O)[C@H](Cc2c[nH]c3ccccc23)N(C)C(=O)[C@H](CCCNC(=N)N)N(C)C(=O)[C@@H](Cc2ccccc2)NC(=O)[C@H](Cc2c[nH]cn2)N(C)C1=O [^177Lu-labeled CCZ01088, metal not drawn]
Unit Annotation: %ID/g
tissue uptake at 4 h: 13.5

Moving on to another compound below.
QUERY: I would be grateful if you could share the reported tissue uptake at 4 h for CCCC[C@H](NC(=O)CN1CCC(NC(=O)CN2CCN(CC(=O)O)CCN(CC(=O)O)CCN(CC(=O)O)CC2)CC1)C(=O)N[C@H]1CC(=O)NCCCC[C@@H](C(N)=O)N(C)C(=O)[C@H](Cc2c[nH]c3ccccc23)NC(=O)[C@H](CCCNC(=N)N)N(C)C(=O)[C@@H](Cc2ccccc2)NC(=O)[C@H](Cc2c[nH]cn2)NC1=O [^177Lu-labeled CCZ01106, metal not drawn] .
RESULT: 3.31

* * *

Assay Summary: Biodistribution of 177Lu-labeled αMSH analogues in mice bearing B16F10 mouse melanoma
Assay type: in vivo, C57BL/6J mice
Stated Conditions: mouse, spleen, iv, total radioactivity; 1 h p.i., C57BL/6J mice, B16F10 melanoma; read-out: Biodistribution, Spleen
Experimental Endpoint: tissue uptake at 1 h (%ID/g)
Number only, in %ID/g; omit the unit.

// solved cases for tissue uptake at 1 h follow
Compound: CCCC[C@H](NC(=O)CN1CCC(NC(=O)CN2CCN(CC(=O)O)CCN(CC(=O)O)CCN(CC(=O)O)CC2)CC1)C(=O)N[C@H]1CC(=O)NCCCC[C@@H](C(N)=O)N(C)C(=O)[C@H](Cc2c[nH]c3ccccc23)NC(=O)[C@H](CCCNC(=N)N)N(C)C(=O)[C@@H](Cc2ccccc2)NC(=O)[C@H](Cc2c[nH]cn2)NC1=O [^177Lu-labeled CCZ01106, metal not drawn]
Experimental Endpoint: tissue uptake at 1 h
Result Value: 0.38
//
Compound: CCCC[C@H](NC(=O)CN1CCC(NC(=O)CN2CCN(CC(=O)O)CCN(CC(=O)O)CCN(CC(=O)O)CC2)CC1)C(=O)N[C@H]1CC(=O)NCCCC[C@@H](C(N)=O)N(C)C(=O)[C@H](Cc2c[nH]c3ccccc23)N(C)C(=O)[C@H](CCCNC(=N)N)N(C)C(=O)[C@@H](Cc2ccccc2)NC(=O)[C@H](Cc2c[nH]cn2)N(C)C1=O [^177Lu-labeled CCZ01099, metal not drawn]
Experimental Endpoint: tissue uptake at 1 h
Result Value: 0.24

QUERY: For the compound CCCC[C@H](NC(=O)CN1CCC(NC(=O)[C@H](CCCCNC(=O)CN2CCN(CC(=O)O)CCN(CC(=O)O)CCN(CC(=O)O)CC2)NC(=O)[C@H](CCC(=O)O)NC(=O)CCCc2ccc(I)cc2)CC1)C(=O)N[C@H]1CC(=O)NCCCC[C@@H](C(N)=O)NC(=O)[C@H](Cc2c[nH]c3ccccc23)NC(=O)[C@H](CCCNC(=N)N)NC(=O)[C@@H](Cc2ccccc2)NC(=O)[C@H](Cc2c[nH]cn2)NC1=O [^177Lu-labeled CCZ01082, metal not drawn] , what tissue uptake at 1 h is on record?
RESULT: 2.1

QUERY: Then what about the compound CCCC[C@H](NC(=O)CN1CCC(NC(=O)[C@H](CCCCNC(=O)CN2CCN(CC(=O)O)CCN(CC(=O)O)CCN(CC(=O)O)CC2)NC(=O)[C@H](CCC(=O)O)NC(=O)CCCc2ccc(I)cc2)CC1)C(=O)N[C@H]1CC(=O)NCCCC[C@@H](C(N)=O)N(C)C(=O)[C@H](Cc2c[nH]c3ccccc23)N(C)C(=O)[C@H](CCCNC(=N)N)N(C)C(=O)[C@@H](Cc2ccccc2)NC(=O)[C@H](Cc2c[nH]cn2)N(C)C1=O [^177Lu-labeled CCZ01088, metal not drawn] ?
RESULT: 1.99

QUERY: Next: CCCC[C@H](NC(=O)CN1CCC(NC(=O)CN2CCN(CC(=O)O)CCN(CC(=O)O)CCN(CC(=O)O)CC2)CC1)C(=O)N[C@H]1CC(=O)NCCCC[C@@H](C(N)=O)NC(=O)[C@H](Cc2c[nH]c3ccccc23)NC(=O)[C@H](CCCNC(=N)N)NC(=O)[C@@H](Cc2ccccc2)NC(=O)[C@H](Cc2c[nH]cn2)NC1=O [^177Lu-labeled CCZ01048, metal not drawn, reference compound]
RESULT: 0.29

QUERY: Repeat with CCCC[C@H](NC(=O)CN1CCC(NC(=O)[C@H](CCCCNC(=O)CN2CCN(CC(=O)O)CCN(CC(=O)O)CCN(CC(=O)O)CC2)NC(=O)[C@H](CCC(=O)O)NC(=O)CCCc2ccc(I)cc2)CC1)C(=O)N[C@H]1CC(=O)NCCCC[C@@H](C(N)=O)N(C)C(=O)[C@H](Cc2c[nH]c3ccccc23)NC(=O)[C@H](CCCNC(=N)N)N(C)C(=O)[C@@H](Cc2ccccc2)NC(=O)[C@H](Cc2c[nH]cn2)NC1=O [^177Lu-labeled CCZ01118, metal not drawn]
RESULT: 2.06
